- Applied conditions: in DMF, 308.15 K
Measurement label: solubility (mole fraction)
When you answer, write just the number.

Form field solubility (mole fraction), entry COC1=CC(=O)C[C@@H](C)[C@]12Oc1c(Cl)c(OC)cc(OC)c1C2=O : 0.0106

----------
- Applied conditions: in water, 318.15 K
Measurement label: solubility (mole fraction)
When you answer, write just the number.

Form field solubility (mole fraction), entry COC1=CC(=O)C[C@@H](C)[C@]12Oc1c(Cl)c(OC)cc(OC)c1C2=O : 1.1e-06

----------
- Applied conditions: in methanol, 298.15 K
Measurement label: solubility (mole fraction)

Form field solubility (mole fraction), entry COC1=CC(=O)C[C@@H](C)[C@]12Oc1c(Cl)c(OC)cc(OC)c1C2=O : 0.000517

----------
- Applied conditions: in DMF, 323.15 K
Measurement label: solubility (mole fraction)
When you answer, write just the number.

Form field solubility (mole fraction), entry COC1=CC(=O)C[C@@H](C)[C@]12Oc1c(Cl)c(OC)cc(OC)c1C2=O : 0.0155

----------
- Applied conditions: in ethanol, 288.15 K
Measurement label: solubility (mole fraction)
When you answer, write just the number.

Form field solubility (mole fraction), entry COC1=CC(=O)C[C@@H](C)[C@]12Oc1c(Cl)c(OC)cc(OC)c1C2=O : 0.000303

----------
- Applied conditions: in methanol, 308.15 K
Measurement label: solubility (mole fraction)

Form field solubility (mole fraction), entry COC1=CC(=O)C[C@@H](C)[C@]12Oc1c(Cl)c(OC)cc(OC)c1C2=O : 0.00077

----------
- Applied conditions: in acetonitrile, 303.15 K
Measurement label: solubility (mole fraction)
When you answer, write just the number.

Form field solubility (mole fraction), entry COC1=CC(=O)C[C@@H](C)[C@]12Oc1c(Cl)c(OC)cc(OC)c1C2=O : 0.00611

----------
- Applied conditions: in methanol, 288.15 K
Measurement label: solubility (mole fraction)
When you answer, write just the number.

Form field solubility (mole fraction), entry COC1=CC(=O)C[C@@H](C)[C@]12Oc1c(Cl)c(OC)cc(OC)c1C2=O : 0.000332

----------
- Applied conditions: in ethanol, 298.15 K
Measurement label: solubility (mole fraction)
When you answer, write just the number.

Form field solubility (mole fraction), entry COC1=CC(=O)C[C@@H](C)[C@]12Oc1c(Cl)c(OC)cc(OC)c1C2=O : 0.000446

----------
- Applied conditions: in NMP, 308.15 K
Measurement label: solubility (mole fraction)

Form field solubility (mole fraction), entry COC1=CC(=O)C[C@@H](C)[C@]12Oc1c(Cl)c(OC)cc(OC)c1C2=O : 0.0479

----------
- Applied conditions: in DMF, 283.15 K
Measurement label: solubility (mole fraction)

Form field solubility (mole fraction), entry COC1=CC(=O)C[C@@H](C)[C@]12Oc1c(Cl)c(OC)cc(OC)c1C2=O : 0.00541

----------
- Applied conditions: in acetonitrile, 288.15 K
Measurement label: solubility (mole fraction)
When you answer, write just the number.

Form field solubility (mole fraction), entry COC1=CC(=O)C[C@@H](C)[C@]12Oc1c(Cl)c(OC)cc(OC)c1C2=O : 0.00418

----------
- Applied conditions: in ethanol, 283.15 K
Measurement label: solubility (mole fraction)

Form field solubility (mole fraction), entry COC1=CC(=O)C[C@@H](C)[C@]12Oc1c(Cl)c(OC)cc(OC)c1C2=O : 0.000255
